target.entity: T1, CXCL5_HUMAN (human, UniProt P42830 41-114)
T1 sequence: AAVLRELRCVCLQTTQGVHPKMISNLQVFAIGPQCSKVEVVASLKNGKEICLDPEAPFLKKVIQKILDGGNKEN
procedure.details: BLI [Cont.]
Measured pKd accompanies every entry in the list below.
The quantity pKd is defined as the negative base-10 logarithm of the molar concentration.

EVA3_RHISA (other, also called Evasin-3; evasin 3) single chain: LVSTIESRTSGDGADNFDVVSCNKNCTSGQNECPEGCFCGLLGQNKKGHCYKIIGNLSGEPPVVRR :: 7.60
P1086_IXORI (other) GSKGQRASQVSETSITAEFCDTSCTQGTDKTWSGCSGDCFCVHVGNDTEGRCMRWDGDYPSAEEEE :: 7.59

Then there is this binder:
Ask: Given the entry P1090_IXORI (other) GSKELSGPESSENSIEAAFCDTNCTEGTDGVWSGCSAGCFCVHVGNSTVGRCMTFNGVDGG , report its measured pKd.
Reply: 7.37
